# experimental_protocol: thallium flux activation in parental CHO cells, counter-screen for KCNQ1 potentiator project (AID 493006);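 as to activation: fluorescence ratio of max minus min over baseline after K+ and Tl+ depolarization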
# measurement_conditions: parental CHO-K1 cells, FluxOR thallium flux, at 10 µM
Activity calls are given as the source filed them.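 The calls were made as follows: active = duplicate-averaged activation above buffer control mean plus 5 SD of those controls; inactive = the rest.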
Lab note: assign the record to one of Yes for active, No for inactive

Reference set, count: 3
> print(dat)
                                   molecule  class.name
1          O=c1c2cc(Br)ccc2nc(-c2ccccc2)n1O         Yes
2  Cc1cc(NC(c2cccnc2)c2c(C)[nH]c3ccccc23)no1 (configuration not stated)          No
3     Cc1ccc(C(=O)O/N=C(\N)Cc2cccs2)c(Cl)c1          No

Exercise: Entry Oc1c(Br)cc(Br)cc1C=Nc1ccc2c(c1)OCO2 : call = ?
Key: Yes
